Data provenance is ChEMBL document CHEMBL4261509.

Target: Thiamine transporter ThiT (Lactococcus lactis subsp. cremoris (strain MG1363), UniProt A2RI47)
Sequence (A2RI47 whole entry): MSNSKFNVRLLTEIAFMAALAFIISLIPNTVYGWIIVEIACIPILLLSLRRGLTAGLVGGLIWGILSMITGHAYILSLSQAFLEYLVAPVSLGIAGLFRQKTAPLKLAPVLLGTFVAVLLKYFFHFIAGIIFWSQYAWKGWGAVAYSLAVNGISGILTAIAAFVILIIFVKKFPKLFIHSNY
Test: Binding affinity to wild-type Lactococcus lactis MG1363 N-terminal His8-tagged ThiT expressed in Lactococcus lactis NZ9000 by isothermal calorimetric titration method
For each of the molecules below, state its Kd.
A number alone suffices; assume µM.

Query string: Request the reported Kd associated with Cc1ncc(Cc2csc(CNCC34CC5CC(CC(C5)C3)C4)c2C)c(N)n1
Result string: 49.8

Query string: Request the reported Kd associated with Cc1cc(CO)cc(Cc2cnc(C)nc2N)c1
Result string: 1.99

Query string: Request the reported Kd associated with Cc1ncc(Cc2cc(CO)cc(C(F)(F)F)c2)c(N)n1
Result string: 2.3

Query string: Request the reported Kd associated with Cc1ncc(Cn2cc(CCO)nn2)c(N)n1
Result string: 28.6
